Measured log D7.4 of individual entries
- assay-text: Lipophilicity determination by HPLC
- Format: physicochemical
- assay-context: HPLC C18, MeOH 72%/acetate-buffered saline pH 7.4 28%
No unit in the answer, please; the number alone is enough.

CSCC[C@H](NC(=O)c1cc(Cl)ccc1O)C(=O)Nc1ccc(C(F)(F)F)cc1 [3e]: 0.963
CC(C)C[C@H](NC(=O)c1cc(Cl)ccc1OCc1ccccc1)C(=O)Nc1ccc(C(F)(F)F)cc1 [2f]: 1.995
CC(C)C[C@H](NC(=O)c1cc(Cl)ccc1OCc1ccccc1)C(=O)N[C@@H](Cc1ccccc1)C(=O)Nc1ccc(C(F)(F)F)cc1 [5a]: 2.031

Form field: reported log D7.4 of O=C(N[C@@H](Cc1ccccc1)C(=O)N[C@@H](Cc1ccccc1)C(=O)Nc1ccc(C(F)(F)F)cc1)c1cc(Cl)ccc1OCc1ccccc1 [5c]
2.096

// same read-out, input: CCC[C@H](NC(=O)c1cc(Cl)ccc1OCc1ccccc1)C(=O)Nc1ccc(C(F)(F)F)cc1 [2b]
1.731

// same read-out, input: CC(C)[C@H](NC(=O)c1cc(Cl)ccc1O)C(=O)Nc1ccc(C(F)(F)F)cc1 [3c]
0.934

---

Measured MBC of individual entries
- Tested on: methicillin-resistant S. aureus SA 3202
- assay-text: Determination of minimum bactericidal concentrations (agar aliquot subculture)
- assay-context: Staphylococcus aureus

Solved cases (6 shown):
O=C(N[C@@H](Cc1ccccc1)C(=O)Nc1ccc(C(F)(F)F)cc1)c1cc(Cl)ccc1O [3h]: 2.16 µM
O=C(N[C@@H](CC1CCCCC1)C(=O)Nc1ccc(C(F)(F)F)cc1)c1cc(Cl)ccc1O [3g]: 1.07 µM
CCCC[C@H](NC(=O)c1cc(Cl)ccc1O)C(=O)Nc1ccc(C(F)(F)F)cc1 [3d]: 2.33 µM
CSCC[C@H](NC(=O)c1cc(Cl)ccc1O)C(=O)Nc1ccc(C(F)(F)F)cc1 [3e]: 8.95 µM
CC(C)[C@H](NC(=O)c1cc(Cl)ccc1O)C(=O)Nc1ccc(C(F)(F)F)cc1 [3c]: 4.82 µM
CC1(C)S[C@@H]2[C@H](NC(=O)[C@H](N)c3ccccc3)C(=O)N2[C@H]1C(=O)O [APC, ampicillin, reference compound]: > 45.8 µM

Form field: reported MBC of CC(C)C[C@H](NC(=O)c1cc(Cl)ccc1O)C(=O)Nc1ccc(C(F)(F)F)cc1 [3f]
1.17 µM

---

Measured MBC of individual entries
- Test system: methicillin-resistant S. aureus 63718
- assay-text: Determination of minimum bactericidal concentrations (agar aliquot subculture)
- assay-context: Staphylococcus aureus
Write the value in µM as a bare number.

Solved cases (2 shown):
CCCC[C@H](NC(=O)c1cc(Cl)ccc1O)C(=O)Nc1ccc(C(F)(F)F)cc1: 4.66
O=C(N[C@@H](CC1CCCCC1)C(=O)Nc1ccc(C(F)(F)F)cc1)c1cc(Cl)ccc1O: 2.13

GET /values?readout=MBC&system=methicillin-resistant S. aureus 63718&item= CSCC[C@H](NC(=O)c1cc(Cl)ccc1O)C(=O)Nc1ccc(C(F)(F)F)cc1
8.95

// same read-out, input: O=C(N[C@@H](Cc1ccccc1)C(=O)Nc1ccc(C(F)(F)F)cc1)c1cc(Cl)ccc1O
0.27

// same read-out, input: CC(C)C[C@H](NC(=O)c1cc(Cl)ccc1O)C(=O)Nc1ccc(C(F)(F)F)cc1
0.07

// same read-out, input: CC(C)[C@H](NC(=O)c1cc(Cl)ccc1O)C(=O)Nc1ccc(C(F)(F)F)cc1
9.64
